Provenance of the data: ChEMBL document CHEMBL1140319

measurement target: UniProt Q8NER1
Sequence (Q8NER1 whole entry): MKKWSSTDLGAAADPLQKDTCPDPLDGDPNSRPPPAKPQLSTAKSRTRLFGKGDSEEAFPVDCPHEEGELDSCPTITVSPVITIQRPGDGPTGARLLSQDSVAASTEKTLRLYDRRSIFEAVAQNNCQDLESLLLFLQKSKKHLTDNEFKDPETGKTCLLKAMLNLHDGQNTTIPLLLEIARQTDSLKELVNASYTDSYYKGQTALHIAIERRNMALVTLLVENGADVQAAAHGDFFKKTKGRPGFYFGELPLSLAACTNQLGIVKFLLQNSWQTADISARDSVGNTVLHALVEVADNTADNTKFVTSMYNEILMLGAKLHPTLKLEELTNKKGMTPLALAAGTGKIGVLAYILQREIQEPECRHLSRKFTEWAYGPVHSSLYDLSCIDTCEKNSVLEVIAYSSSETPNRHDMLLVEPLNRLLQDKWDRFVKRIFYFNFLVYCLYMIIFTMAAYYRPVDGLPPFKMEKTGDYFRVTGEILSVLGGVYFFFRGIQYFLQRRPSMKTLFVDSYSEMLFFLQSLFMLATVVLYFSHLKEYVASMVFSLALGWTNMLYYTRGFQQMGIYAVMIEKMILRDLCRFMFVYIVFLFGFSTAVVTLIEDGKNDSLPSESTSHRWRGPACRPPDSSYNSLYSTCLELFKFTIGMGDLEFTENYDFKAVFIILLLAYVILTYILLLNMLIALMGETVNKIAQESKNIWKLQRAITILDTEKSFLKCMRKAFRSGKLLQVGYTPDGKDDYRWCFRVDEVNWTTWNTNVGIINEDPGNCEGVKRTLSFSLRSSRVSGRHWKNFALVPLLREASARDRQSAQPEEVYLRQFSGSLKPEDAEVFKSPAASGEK
experiment summary: Inhibition of 100 nM capsaicin effect on intracellular [Ca2+] concentration in HEK293 cells expressing human TRPV1; (weak agonist activity)
Assay type: functional, cell-based

>  <structure as smiles>
CCCCCCCCC(=O)NCc1cc(OC)c(O)c(-c2cc(CNC(=O)CCCCCCCC)cc(OC)c2O)c1

>  <IC50>
> 20 µM

$$$$
